# TESTED ON: Hypoxia-inducible factor 1-alpha (Homo sapiens) (UniProt Q16665)
# Sequence (Q16665 whole entry, looked up): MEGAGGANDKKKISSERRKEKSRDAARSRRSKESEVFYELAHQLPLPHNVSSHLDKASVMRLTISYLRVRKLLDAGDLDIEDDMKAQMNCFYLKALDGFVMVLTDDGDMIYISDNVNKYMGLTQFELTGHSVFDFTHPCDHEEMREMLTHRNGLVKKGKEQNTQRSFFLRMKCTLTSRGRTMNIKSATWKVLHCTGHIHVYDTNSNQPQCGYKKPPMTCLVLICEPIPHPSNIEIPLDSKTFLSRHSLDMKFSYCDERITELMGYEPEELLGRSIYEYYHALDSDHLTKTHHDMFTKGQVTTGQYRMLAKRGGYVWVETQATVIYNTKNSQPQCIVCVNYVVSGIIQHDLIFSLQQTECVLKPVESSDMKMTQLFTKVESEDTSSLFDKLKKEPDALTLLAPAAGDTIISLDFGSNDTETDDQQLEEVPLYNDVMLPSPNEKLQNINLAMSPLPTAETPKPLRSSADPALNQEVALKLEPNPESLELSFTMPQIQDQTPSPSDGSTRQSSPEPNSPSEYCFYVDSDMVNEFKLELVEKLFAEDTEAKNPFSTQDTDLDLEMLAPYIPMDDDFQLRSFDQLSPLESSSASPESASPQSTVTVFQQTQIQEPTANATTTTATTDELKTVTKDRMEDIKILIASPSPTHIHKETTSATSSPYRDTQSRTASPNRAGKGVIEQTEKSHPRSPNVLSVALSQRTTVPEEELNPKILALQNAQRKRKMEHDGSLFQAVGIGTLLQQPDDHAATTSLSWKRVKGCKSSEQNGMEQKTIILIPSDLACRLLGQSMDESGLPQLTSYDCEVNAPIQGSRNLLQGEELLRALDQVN
# TEST PROTOCOL: ATG_HIF1a_CIS: Attagene CIS-FACTORIAL HepG2 Assay for human Hypoxia Inducible Factor 1 (HIF1A) (AID 2282951)
# SETTINGS: HepG2 Attagene cis-factorial HIF1a reporter transcription; actives raise or lower the signal
The source made the active and inactive calls. Rule for the calls: active = hit-call score of the fitted dose curve at least 0.9, where 1 is the maximum; inactive = score below 0.9.
Just give me one of these, please: yes (1) = active, no (0) = inactive

# lookup: test call for COC(=O)C1=C(C)NC(C)=C(C(=O)OCC(C)C)C1c1ccccc1[N+](=O)[O-] (stereo not drawn)
yes (1)

Which result was noted for this compound in the test: `Nc1ccc(-c2ccc(F)cc2)cc1`
no (0)

# outcome recorded in this test, key = `C=C(C)C(=O)OCCO`
no (0)

Dear colleague, could you share the recorded outcome for `Cc1ccc([N+](=O)[O-])cc1S(=O)(=O)O` when you have a moment?
no (0)

For `CC1(C)[C@H]2CC[C@]1(C)C(=O)C2` , what call appears in the results of this test?
no (0)

Tell me the recorded outcome of this test for `CC(C)=CCC[C@H](C)CCO` .
no (0)

Given `CC(C)(C)c1ccc(N)cc1` , state the outcome it received in this test.
no (0)

Tell me the assay call for `COc1cc(NC(=O)CC(C)=O)c(OC)cc1Cl` please.
no (0)

Hi team, can someone confirm the assay call for `CNC(=S)NN` ?
no (0)

Answer briefly: the call reported for C=CCOCC(O)CCl (stereo not drawn) in this assay.
no (0)

Kindly provide the recorded test outcome for the following compound: O=C(OCC1CCC2OC2C1)C1CCC2OC2C1 (stereo not drawn)
no (0)

Tell me the assay call for `COC(=O)/C=C/C(C)=C\C=C\C(C)=C\C=C\C=C(C)\C=C\C=C(C)\C=C\C(=O)O` please.
no (0)

Assay result, entry `CC(=O)[C@@]1(O)CC[C@H]2[C@@H]3C[C@H](C)C4=CC(=O)C=C[C@]4(C)[C@@]3(F)[C@@H](O)C[C@@]21C` — outcome?
no (0)

Which outcome did this test record for the compound `O=C(c1ccccc1)c1ccc(O)c(O)c1O` ?
yes (1)

Given `C[Si](C)O[Si](C)(C)O[Si](C)(C)O[Si](C)C` , state the outcome it received in this test.
no (0)

# outcome recorded in this test, key = `CCc1ccc2c(c1)C(=O)c1ccccc1C2=O`
no (0)

What classification did `C=CC=CC=CCCCCC` end up with in this test?
no (0)

Assay outcome for CC(C)(C)C1CCCCC1=O (stereo not drawn) : what was it?
no (0)

Please state the recorded outcome for this compound: `O=C(Nc1ccccc1)c1ccccc1O`
no (0)

Can you look up the reported call for `Oc1ccc(Cl)cc1Cc1cc(Cl)ccc1O` for me?
yes (1)

Entry `CCN(CC#N)c1cccc(C)c1` : call = ?
no (0)

For this compound, state the assay outcome: `CCCCCCCCCCOS(=O)(=O)O`
no (0)

Field: outcome | Entry: `CCCCCCCC/C=C\CCCCCCCC(=O)OCCO`
no (0)

For `O=C(O)C(c1ccc(Cl)cc1)c1ccc(Cl)cc1` , which call appears in the assay record?
yes (1)

Could you check what this test reported for `C=C(C)c1cccc(C(C)(C)N=C=O)c1` ?
no (0)

I'd appreciate the recorded outcome for `C=CC(=O)OCCOC(=O)C=C` from this test.
no (0)

How was `Cc1ccc(N)c([N+](=O)[O-])c1` classified in this test?
no (0)

Which outcome did this test record for the compound `CC(=O)Oc1ccc(C(C)=O)cc1` ?
no (0)

Which result was noted for this compound in the test: `Cc1cc(C)c(C(=O)O)c(C)c1`
no (0)

# outcome recorded in this test, key = CC1=NC(C)OC1C (stereo not drawn)
no (0)

Fill in: this test's call for `CC(=O)OC(C)C` is ___
no (0)

Just curious, what result did `O=C1Nc2ccccc2C1(c1ccc(O)cc1)c1ccc(O)cc1` get here?
yes (1)

Returns: the outcome recorded for `C=C(C)C(=O)OCC(C)C` in this assay.
no (0)

Tell me the recorded outcome of this test for `CCc1c(C(=O)O)c(=O)cnn1-c1ccc(Cl)cc1` .
no (0)

Please indicate how the test categorized `CC=CCO` .
no (0)

Per the records of this test, what outcome belongs to `COC(=O)c1cc(Cl)ccc1[N+](=O)[O-]` ?
no (0)

How did this test come out for `CC(=O)OCCC1CCCCC1` ?
no (0)

Recorded test call requested for `CC(C)c1ccc(C#N)cc1`
no (0)

What was the test verdict on `NC(=O)NNC(N)=O` ?
no (0)

Returns: the outcome recorded for CCC(C)C=O (stereo not drawn) in this assay.
no (0)

# lookup: test call for `CCCCCCOc1cc(C)c(O)c(C)c1C`
no (0)

For `COc1c2ccoc2cc2oc(=O)ccc12` , which call appears in the assay record?
no (0)

Dear colleague, could you share the recorded outcome for `CC(C)(C)C(=O)C=Cc1ccc(Cl)cc1` when you have a moment?
yes (1)

So what was the verdict on `Cc1ccc2c(c1)C(=O)c1ccccc1C2=O` in this test?
no (0)

Identify the outcome logged in this assay for the compound shown: `Cc1cccc(C(=O)O)c1`
no (0)

Query: recorded result category for `CCCCCCCCCCCCCCCC[N+](C)(C)CC` in this test
no (0)

Outcome logged for `CC1=CC[C@H]2C[C@@H]1C2(C)C` in this assay:
no (0)

Which outcome was entered for the compound `COCc1c(C(C)C)nc(C(C)C)c(/C=C/[C@@H](O)C[C@@H](O)CC(=O)O)c1-c1ccc(F)cc1` in this test?
no (0)

Query: recorded result category for `c1ccc(CNCc2ccccc2)cc1` in this test
no (0)

Just curious, what result did CC1=NN(c2cc(S(=O)(=O)O)ccc2Cl)C(=O)C1N=Nc1ccccc1 (stereo not drawn) get here?
no (0)

Record lookup: outcome of this test for O=C1CC2CC1C1CCCC21 (stereo not drawn) ?
no (0)

GET /call?item= `O=Nc1ccc(O)cc1` returns the recorded outcome of this test.
no (0)

Field: outcome | Entry: `CCN(Cc1cccc(S(=O)(=O)O)c1)c1ccc(C(=C2C=CC(=[N+](CC)Cc3cccc(S(=O)(=O)[O-])c3)C=C2)c2ccccc2)cc1`
no (0)

So what was the verdict on `C=C1[C@H]2CC[C@@H]3[C@H]2C(C)(C)CCC[C@]13C` in this test?
no (0)

# lookup: test call for `COCCCOCCCOC`
no (0)

Test call for this compound, please: `COC(=O)c1c(C)cc(O)c(C)c1O`
no (0)

Test call for this compound, please: `O=C(O)c1cc2ccccc2nc1C(=O)O`
no (0)

// outcome(item) with item = `COCCOCCOCCOCCOC`
no (0)
